- Test system: male ICR-mice
- procedure.text: Potentiation of sodium pentobarbital sleeping time test
- Assay type: in vivo
- test.settings: oral, 5 mg/kg, 38 mg/kg sodium pentobarbital 60 min later
Recorded Sleep prolonging rate (%) values for a group of compounds are listed next.
Express it in %; write the number only.

Worked cases, answers included:
compound	Sleep prolonging rate (%)
COC(=O)[C@@H](Cc1ccccc1)Nc1ncnc2c1ncn2[C@@H]1O[C@H](CO)C(O)C1O (stereo partly drawn)	2
OC[C@H]1O[C@@H](n2cnc3c(NC(c4ccccc4)c4ccccc4)ncnc32)[C@H](O)[C@@H]1O	16
Nc1ccc(CNc2ncnc3c2ncn3[C@@H]2O[C@H](CO)[C@@H](O)[C@H]2O)cc1	171
COc1ccc2c(c1)CCCC2Nc1ncnc2c1ncn2[C@@H]1O[C@H](CO)[C@@H](O)[C@H]1O (mixture of isomers)	170
COc1cccc([C@H](C)Nc2ncnc3c2ncn3[C@@H]2O[C@H](CO)[C@@H](O)[C@H]2O)c1	39

We next turn to a different compound, shown below.
The reported Sleep prolonging rate (%) of the compound CC(Nc1ncnc2c1ncn2[C@@H]1O[C@H](CO)[C@@H](O)[C@H]1O)c1ccccc1 (mixture of isomers) [Example 45, N^6-[(±)-1-(phenyl)-ethyl]-adenosine] was 201

----------
- Tested on: male ICR-mice
- procedure.text: Potentiation of sodium pentobarbital sleeping time test
- Assay type: in vivo
- test.settings: intraperitoneal, 5 mg/kg, 38 mg/kg sodium pentobarbital 30 min later
measured.property: Sleep prolonging rate (%)
The reply should consist of the numeric value with the unit placed after it.

Lab entry: male ICR-mice assay, compound OC[C@H]1O[C@@H](n2cnc3c(NCc4ccc(OC(F)(F)F)cc4)ncnc32)[C@H](O)[C@@H]1O [Example 12, N^6-(p-trifluoromethoxybenzyl)-adenosine] , Sleep prolonging rate (%) = 44%

// Sleep prolonging rate (%) (male ICR-mice) for OC[C@H]1O[C@@H](n2cnc3c(NCc4ccc(O)c(O)c4)ncnc32)[C@H](O)[C@@H]1O [Example 22, N^6-(3,4-dihydroxybenzyl)-adenosine] = 32%

Summary line: OC[C@H]1O[C@@H](n2cnc3c(NCCc4c[nH]c5ccccc45)ncnc32)[C@H](O)[C@@H]1O [Example 44, N^6-[(1H-Indole-3-yl)-ethyl]-adenosine] , male ICR-mice, reported Sleep prolonging rate (%) = 147%

Sleep prolonging rate (%) of COc1cc(CNc2ncnc3c2ncn3[C@@H]2O[C@H](CO)C(O)C2O)cc(OC)c1O (stereo partly drawn) [Example 36] , assay on male ICR-mice, is 336%

Known value: male ICR-mice Sleep prolonging rate (%) of the compound O=C(O)[C@@H](Cc1c[nH]c2ccccc12)Nc1ncnc2c1ncn2[C@@H]1O[C@H](CO)C(O)C1O (stereo partly drawn) [Example 111, N-(6-adenosine)-(L)-tryptophan] equals 69%

The measured Sleep prolonging rate (%) that O=C(O)[C@H](Cc1ccc(O)cc1)Nc1ncnc2c1ncn2[C@@H]1O[C@H](CO)C(O)C1O (stereo partly drawn) [Example 107, N-(6-adenosine)-(L)-tyrosine] showed for male ICR-mice is 66%

Observed Sleep prolonging rate (%) on male ICR-mice, entry O=C(O)[C@@H]1CCCN1c1ncnc2c1ncn2[C@@H]1O[C@H](CO)C(O)C1O (stereo partly drawn) [Example 118, N-(6-adenosine)-(L)-proline] , equals 29%

Item OC[C@H]1O[C@@H](n2cnc3c(NCc4ccc(F)cc4)ncnc32)[C@H](O)[C@@H]1O [Example 11, N^6-(p-fluorobenzyl)-adenosine] ; assay system male ICR-mice; Sleep prolonging rate (%) reported as 73%

// Sleep prolonging rate (%) (male ICR-mice) for OC[C@H]1O[C@@H](n2cnc3c(NCc4ccc(C(F)(F)F)cc4)ncnc32)[C@H](O)[C@@H]1O [Example 13, N^6-(p-trifluoromethylbenzyl)-adenosine] = 23%

Result for O=C(O)[C@H](Cc1c[nH]c2ccccc12)Nc1ncnc2c1ncn2[C@@H]1O[C@H](CO)C(O)C1O (stereo partly drawn) [Example 112, N-(6-adenosine)-(D)-tryptophan] , tested on male ICR-mice, Sleep prolonging rate (%): 89%

Tested system male ICR-mice; Sleep prolonging rate (%) recorded for Cc1ccc(CNc2ncnc3c2ncn3[C@@H]2O[C@H](CO)[C@@H](O)[C@H]2O)o1 [Example 18, N^6-(5-methyl-2-furanylmethyl)-adenosine] was 7%

Record OC[C@H]1O[C@@H](n2cnc3c(NCc4cccs4)ncnc32)[C@H](O)[C@@H]1O [Example 19, N^6-(2-thiopheneylmethyl)-adenosine] ; system male ICR-mice; Sleep prolonging rate (%) = 12%
